Numbers sourced from patent US10246469B2.

Assign pIC50 to each entry below.
- systemUnderTest: GST-Xa-hAAK1 (Homo sapiens)
- Construct: GST (N); Factor Xa cleavage site (Xa) (internal)
- Sequence (Q2M2I8 whole entry): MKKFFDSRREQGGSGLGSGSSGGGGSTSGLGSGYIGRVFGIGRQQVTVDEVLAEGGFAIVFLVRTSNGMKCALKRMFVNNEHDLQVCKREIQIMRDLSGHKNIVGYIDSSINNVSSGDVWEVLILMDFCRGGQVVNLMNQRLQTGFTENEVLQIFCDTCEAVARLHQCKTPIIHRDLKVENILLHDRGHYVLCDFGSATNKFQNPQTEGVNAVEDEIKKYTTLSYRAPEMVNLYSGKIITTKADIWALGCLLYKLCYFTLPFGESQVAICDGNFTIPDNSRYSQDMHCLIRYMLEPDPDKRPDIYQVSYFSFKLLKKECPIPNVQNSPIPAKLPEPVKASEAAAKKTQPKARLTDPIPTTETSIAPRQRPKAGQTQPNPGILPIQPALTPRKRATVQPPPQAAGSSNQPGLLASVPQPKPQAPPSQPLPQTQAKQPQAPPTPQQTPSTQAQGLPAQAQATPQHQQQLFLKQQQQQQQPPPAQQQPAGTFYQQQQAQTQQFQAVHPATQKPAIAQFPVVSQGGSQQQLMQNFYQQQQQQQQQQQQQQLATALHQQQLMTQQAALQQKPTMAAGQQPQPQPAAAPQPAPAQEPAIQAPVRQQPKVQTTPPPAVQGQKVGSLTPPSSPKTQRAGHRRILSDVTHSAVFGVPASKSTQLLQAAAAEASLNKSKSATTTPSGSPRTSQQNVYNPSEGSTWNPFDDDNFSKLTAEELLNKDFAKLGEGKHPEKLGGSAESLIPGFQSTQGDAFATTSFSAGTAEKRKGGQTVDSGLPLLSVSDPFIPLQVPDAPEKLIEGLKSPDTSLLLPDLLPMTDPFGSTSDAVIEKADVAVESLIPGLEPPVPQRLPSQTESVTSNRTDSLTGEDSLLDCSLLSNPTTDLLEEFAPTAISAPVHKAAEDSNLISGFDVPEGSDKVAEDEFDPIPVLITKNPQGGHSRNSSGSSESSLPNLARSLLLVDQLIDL
- measurementProtocol: AAK1 Kinase Assay
- protocolConditions: bacterially expressed GST-Xa-hAAK1 3.5 nM; ATP 22 μM; fluoresceinated peptide 1.5 μM; 3 hours at room temperature; Caliper LabChip 3000
// returns pIC50 (minus log10 of molar concentration), number only

Note to self: pIC50 recorded for CC(C)C[C@](C)(N)COc1ccc(-c2ccnc3ccnn23)cc1C#N [Example 460] was 9.22

Note to self: pIC50 recorded for CC(C)C[C@](C)(N)COc1ccc(-c2cc(=O)[nH]cn2)cc1Cl [Example 509] was 8.21

Note to self: pIC50 recorded for CC(C)C[C@](C)(N)COc1ccc(-c2ncnc3[nH]ccc23)cc1C(F)(F)F [Example 363] was 9.40

Note to self: pIC50 recorded for Cc1cc(-c2cnn3cccnc23)ccc1OC[C@@](C)(N)CC(C)C [Example 333] was 7.00

Note to self: pIC50 recorded for CC(C)C[C@](C)(N)COc1ccc(-c2ccnc(NC(=O)c3ccco3)c2)cc1C(F)(F)F [Example 400] was 9.52

Note to self: pIC50 recorded for Cc1nc2c(-c3ccc(OC[C@@](C)(N)CC(C)C)c(C)c3)ccnc2[nH]1 [Example 294] was 6.92

Note to self: pIC50 recorded for Cc1nc2c(-c3ccc(OC[C@@](C)(N)CC(C)C)c(C(F)(F)F)c3)ccnc2[nH]1 [Example 291] was 7.47

Note to self: pIC50 recorded for CC(C)C[C@](C)(N)COc1ccc(-c2ccnc3c2C(=O)N(C)C3)cc1C#N [Example 414] was 7.33

Note to self: pIC50 recorded for CC(C)C[C@](C)(N)COc1ccc(-c2ccnc3ccnn23)cc1C(F)F [Example 351] was 9.40

Note to self: pIC50 recorded for Cc1cn2nccc(-c3ccc(OC[C@@](C)(N)CC(C)C)c(C(F)(F)F)c3)c2n1 [Example 498] was 9.30

Note to self: pIC50 recorded for CC(C)C[C@](C)(N)COc1ccc(-c2cc(Cl)nn3cc(C4CC4)nc23)cc1C#N [Example 494] was 6.65

Note to self: pIC50 recorded for CC(C)C[C@](C)(N)COc1ccc(-c2ccnc3c2C(=O)NC3)cc1Cl [Example 417] was 8.44

Note to self: pIC50 recorded for CC(C)C[C@](C)(N)COc1ccc(-c2ncnc3cc(F)c(F)cc23)cc1C(F)(F)F [Example 471] was 8.20

Note to self: pIC50 recorded for CC(C)C[C@](C)(N)COc1cnc(-c2ccnc3ccnn23)cc1C#N [Example 486] was 5.86

Note to self: pIC50 recorded for Cc1csc(Nc2nccc(-c3ccc(OC[C@@](C)(N)CC(C)C)c(C)c3)n2)n1 [Example 381] was 8.82

Note to self: pIC50 recorded for Cc1cn2nccc(-c3ccc(OC[C@@](C)(N)CC(C)C)c(F)c3)c2n1 [Example 497] was 7.96

Note to self: pIC50 recorded for CC(C)C[C@](C)(N)COc1ccc(-c2ccnc(NC(=O)CCC3CCCC3)c2)cc1C(F)(F)F [Example 393] was 8.14

Note to self: pIC50 recorded for CC(C)C[C@](C)(N)COc1ccc(-c2ccnc3[nH]ncc23)cc1C(F)(F)F [Example 292] was 9.40

Note to self: pIC50 recorded for CC(C)C[C@](C)(N)COc1ccc(-c2ccnn3ccnc23)cc1C(F)(F)F [Example 283] was 9.40

Note to self: pIC50 recorded for CC(C)C[C@](C)(N)COc1ccc(-c2ccnc3nccnc23)cc1F [Example 253] was 6.27

Note to self: pIC50 recorded for Cc1nccc(-c2cnc(OCC3(N)CCC3)c(C)c2)n1 [Example 347] was 6.02

Note to self: pIC50 recorded for CC(C)C[C@](C)(N)COc1ccc(-c2ccnc3cc(C4CC4)nn23)cc1C(F)(F)F [Example 483] was 8.57

Note to self: pIC50 recorded for CC(C)C[C@](C)(N)COc1ccc(-c2ccnc3cc[nH]c23)cc1C#N [Example 421] was 9.30

Note to self: pIC50 recorded for CC(C)C[C@](C)(N)COc1ccc(-c2ccnc(NC(=O)CC3CCCCCC3)c2)cc1C(F)(F)F [Example 399] was 8.23

Note to self: pIC50 recorded for Cc1cc(-c2ccnc(NC3CCOC3)c2)ccc1OC[C@@](C)(N)CC(C)C (stereo partly drawn) [Example 346] was 7.64

Note to self: pIC50 recorded for CC(C)C[C@](C)(N)COc1ccc(-c2ccnc3cc(C(F)(F)F)nn23)cc1Cl [Example 336] was 7.82

Note to self: pIC50 recorded for CC(C)C[C@](C)(N)COc1ccc(-c2ccnc(NC3CCCOC3)c2)cc1C(F)(F)F (mixture of isomers) [Example 475] was 7.82

Note to self: pIC50 recorded for CC(C)C[C@](C)(N)COc1ccc(-c2ccnc(Nc3nccs3)c2)cc1C(F)(F)F [Example 256] was 9.09

Note to self: pIC50 recorded for Cc1cc(-c2ccc(OC[C@@](C)(N)CC(C)C)c3ncsc23)ccn1 [Example 267] was 6.44

Note to self: pIC50 recorded for CC(C)C[C@](C)(N)COc1ccc(-c2ccnc(NC(=O)c3ccc(Br)o3)c2)cc1C(F)(F)F [Example 401] was 9.22

Note to self: pIC50 recorded for CC(C)C[C@](C)(N)COc1ccc(-c2ccnc(NC3CCNCC3)c2)cc1C(F)(F)F [Example 470] was 6.86

Note to self: pIC50 recorded for CC(C)C[C@](C)(N)COc1ccc(-c2ccnc(NCc3ccco3)c2)cc1C(F)(F)F [Example 411] was 8.96

Note to self: pIC50 recorded for CC(C)C[C@](C)(N)COc1ccc(-c2ccnc(Nc3nccs3)n2)cc1C(F)(F)F [Example 371] was 9.70
